# TESTED_ON: T1, huCD39 recombinant protein (human, UniProt P49961 38-478)
# T1 construct: the entry is the extracellular domain and ends in a histidine tag; also called soluble huCD39 protein; human CD39 extracellular domain recombinant protein
# T1 sequence: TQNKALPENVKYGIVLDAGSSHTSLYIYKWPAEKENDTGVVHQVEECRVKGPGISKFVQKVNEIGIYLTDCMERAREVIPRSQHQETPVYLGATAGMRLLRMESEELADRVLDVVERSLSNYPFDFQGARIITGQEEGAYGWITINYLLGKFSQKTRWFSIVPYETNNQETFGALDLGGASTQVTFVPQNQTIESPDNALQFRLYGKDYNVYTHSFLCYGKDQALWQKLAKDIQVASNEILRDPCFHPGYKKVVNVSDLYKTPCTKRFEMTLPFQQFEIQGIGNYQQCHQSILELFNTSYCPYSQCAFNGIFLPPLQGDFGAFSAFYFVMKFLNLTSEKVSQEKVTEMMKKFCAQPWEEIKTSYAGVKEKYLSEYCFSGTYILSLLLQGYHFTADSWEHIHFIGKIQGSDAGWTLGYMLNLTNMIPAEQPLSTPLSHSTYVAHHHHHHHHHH
# PROTOCOL_TEXT: indirect ELISA, huCD39 recombinant protein coated at 1 ug/mL
ASSAY_METRIC: Top (OD450)
Number in OD450, nothing else.

Use these answered entries as a reference point.
[
  {
    "BINDER": "219 hIgG2 (antibody, V domains shown, Chimeric antibody: mouse Fv fused to the human IgG2 constant region; also called chimeric antibody 219) VH: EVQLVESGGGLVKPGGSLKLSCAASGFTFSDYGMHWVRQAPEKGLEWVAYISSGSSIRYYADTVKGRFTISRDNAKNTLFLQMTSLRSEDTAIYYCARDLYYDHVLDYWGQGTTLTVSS VL: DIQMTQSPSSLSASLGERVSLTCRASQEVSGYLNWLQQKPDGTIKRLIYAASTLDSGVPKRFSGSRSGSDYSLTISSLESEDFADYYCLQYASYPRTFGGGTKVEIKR",
    "Top, OD450": 1.33
  },
  {
    "BINDER": "217 hIgG2 (antibody, V domains shown, Chimeric antibody: mouse Fv fused to the human IgG2 constant region) VH: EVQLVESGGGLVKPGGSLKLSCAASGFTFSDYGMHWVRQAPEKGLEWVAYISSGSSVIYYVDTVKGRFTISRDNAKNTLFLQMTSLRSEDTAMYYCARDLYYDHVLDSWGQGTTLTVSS VL: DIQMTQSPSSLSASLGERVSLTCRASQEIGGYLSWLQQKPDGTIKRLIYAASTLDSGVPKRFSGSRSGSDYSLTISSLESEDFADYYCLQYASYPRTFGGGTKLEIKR",
    "Top, OD450": 1.39
  },
  {
    "BINDER": "201 hIgG2 (antibody, V domains shown, Chimeric antibody: mouse Fv fused to the human IgG2 constant region, expressed in 293F cells; also called chimeric antibody 201) VH: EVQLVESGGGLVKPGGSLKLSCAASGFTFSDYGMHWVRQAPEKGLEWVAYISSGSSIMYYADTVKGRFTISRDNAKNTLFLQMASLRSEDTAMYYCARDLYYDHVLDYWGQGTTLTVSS VL: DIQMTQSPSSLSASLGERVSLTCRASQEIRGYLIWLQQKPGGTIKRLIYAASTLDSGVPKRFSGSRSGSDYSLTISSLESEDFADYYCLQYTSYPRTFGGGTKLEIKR",
    "Top, OD450": 1.64
  }
]

Lab note: next binder to report on.
**Query** What does the data say about its Top? Entry: 216 hIgG2 (antibody, V domains shown, Chimeric antibody: mouse Fv fused to the human IgG2 constant region; also called chimeric antibody 216) VH: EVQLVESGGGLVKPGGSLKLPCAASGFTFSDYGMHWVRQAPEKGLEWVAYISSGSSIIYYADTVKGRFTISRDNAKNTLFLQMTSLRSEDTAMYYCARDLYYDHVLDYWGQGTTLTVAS VL: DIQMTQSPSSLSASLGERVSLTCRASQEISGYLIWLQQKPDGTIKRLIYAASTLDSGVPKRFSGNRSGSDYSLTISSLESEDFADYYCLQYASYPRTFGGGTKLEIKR
**Result** 1.43
